Parameter: polymerase ribozyme fitness (log ratio). Scope: all listed entries.
B1: TPR 5TU (parent)
chain: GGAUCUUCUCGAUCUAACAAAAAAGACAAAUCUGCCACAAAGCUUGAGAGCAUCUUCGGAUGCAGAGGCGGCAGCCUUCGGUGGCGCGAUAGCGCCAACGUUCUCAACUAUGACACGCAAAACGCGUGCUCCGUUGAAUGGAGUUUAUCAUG

Variants of: B1
Experiment Summary: polymerase ribozyme fitness, log enrichment relative to wild type (log ratio); higher = more active; in vitro selection for triplet polymerase activity
Fewer inactive variants are shown than the library holds.
Recorded Endpoint: polymerase ribozyme fitness (log ratio)

In [3]: df
Out[3]:
                          variant_identifier  endpoint_value
 0                      C54U C93U C96G U135A           -3.57
 1                                 G50C G58U           -1.88
 2     G25C G46C C85G C87U G124C C125U U146C          ≤ -4.2
 3                                C69U G126A           0.958
 4  A21U A24C C27G A28U G88U U102C A107C C114U          ≤ -4.2
 5                                 A26U G94C            -2.1
 6  U78G A89U C93G A106G C118G U145C A150U U151G          ≤ -4.2
 7          U55G G59C G94C U102A U127A U135C          ≤ -4.2
 8                 C43A U53G U56G A97U A137G          ≤ -4.2
 9                            G25C A49C C93G          ≤ -4.2
10                                 G59C G81A           -2.07
11                                      A60G          0.0111
12                                 A20G A91U          ≤ -4.2
13                                 U55A A97U          -0.916
14                      A60U C76U G86A G141A           -3.96
15                                 A24U C96U          0.0587
16  U6G C10U A12U U33G A37U C95A U135A G141U U144C          ≤ -4.2
17                                 A16U G81A           -1.95
18      C5G G46A G88A C95G U102G U135C A147C          ≤ -4.2
19                      C32G C38G C93G G133U           -3.72
20  A24C U55A C57U G58U A66G G68C C85A C149G          ≤ -4.2
21                                 G59A G88U           -3.96
22                                C87U A121U           -0.38
23           C10U G42C C69A C95G A142G A150G          ≤ -4.2
